B1: NELF-E aptamer (parent)
chain: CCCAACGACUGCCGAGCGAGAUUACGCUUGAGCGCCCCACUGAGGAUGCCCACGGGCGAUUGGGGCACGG

# Variants of: B1
# measurement protocol: HiTS-RAP
# test settings: with NELF-E (Drosophila)
reported endpoint: Kd (nM)
Please reply with the bare figure in nM and do not write the unit itself.

Here are 4 variants together with their reported answers.
1. C12U U41G: 6.2
2. C6G C13U: 4.96
3. U23G U47A: 13.5
4. A15U U22G: 6.74

Query string: Would you mind telling me what Kd value was observed for G16U U28G ?
Result string: 6.45

Query string: Would you mind telling me what Kd value was observed for C9G G42U ?
Result string: 7.6

Query string: Would you mind telling me what Kd value was observed for C9G C13A ?
Result string: 7.19

Query string: Would you mind telling me what Kd value was observed for C6G U60C ?
Result string: 10.3
